Tested on: SK-OV-3 ovarian
protocol_text: NCI tumour cell line growth inhibition, 384-well format
TGI values by entry

compound	limit_sign	TGI / µM
Cc1cnc(NC2CCOCC2)nc1-n1cnc(C(=O)N[C@H](CN)c2cc(F)cc(Cl)c2)c1	=	15.4
O=C(C1CC1)N1CC[C@@H](Cc2n[nH]c(=O)n2-c2ccc(-c3ccc4occc4c3)cc2)C1	>	100
NC1(c2ccc(-c3nc4ccn5c(=O)[nH]nc5c4cc3-c3ccccc3)cc2)CCC1	=	2.3
Cc1cc(-c2ccc(C3C(C#N)=C(N)Oc4c3c(=O)oc3ccccc43)cc2)cnc1F (stereo not given)	>	100
CNC[C@@H](NC(=O)c1ccc(-c2nc([C@H]3CC[C@H](O)[C@@H](F)C3)cnc2N)cc1F)c1cc(F)cc(Br)c1	=	30.7
